The variants listed here are annotated with their protein stability index.
B1: MFF (parent)
chain: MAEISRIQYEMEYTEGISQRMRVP

Variants of: B1
Test: protein stability index of a GFP-peptide fusion (GPS, HEK-293T) (PSI 1-6); higher = more stable;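 note: lentivirally expressed fusions sorted by FACS into six bins by GFP to DsRed ratio, PSI derived from sequencing read proportions per bin multiplied by bin number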
Details: c terminus: a fixed tail appended
Measured parameter: protein stability index

>  <Seq text>
MAESSRIQYEMEYTEGISQRMRVP [I4S]

>  <Measured parameter>
protein stability index

>  <Reported>
3.42

$$$$
>  <Seq text>
MAEISRIQYEMEETEGISQRMRVP [Y13E]

>  <Measured parameter>
protein stability index

>  <Reported>
3.32

$$$$
>  <Seq text>
MAEISRGQYEMEYTEGISQRMRVP [I7G]

>  <Measured parameter>
protein stability index

>  <Reported>
3.03

$$$$
>  <Seq text>
MAEISRIQYEMELTEGISQRMRVP [Y13L]

>  <Measured parameter>
protein stability index

>  <Reported>
2.62

$$$$
>  <Seq text>
MAEIFRIQYEMEYTEGISQRMRVP [S5F]

>  <Measured parameter>
protein stability index

>  <Reported>
1.71

$$$$
>  <Seq text>
MAEISRIQWEMEYTEGISQRMRVP [Y9W]

>  <Measured parameter>
protein stability index

>  <Reported>
2.28

$$$$
>  <Seq text>
MAEISRIQTEMEYTEGISQRMRVP [Y9T]

>  <Measured parameter>
protein stability index

>  <Reported>
3.22

$$$$
>  <Seq text>
MAEKSRIQYEMEYTEGISQRMRVP [I4K]

>  <Measured parameter>
protein stability index

>  <Reported>
3.58

$$$$
>  <Seq text>
MAEISRIQYEMAYTEGISQRMRVP [E12A]

>  <Measured parameter>
protein stability index

>  <Reported>
1.82

$$$$
>  <Seq text>
MAEISRIQYEMEYTEGISQRMRGP [V23G]

>  <Measured parameter>
protein stability index

>  <Reported>
2.72

$$$$
>  <Seq text>
MAEISRIQYEQEYTEGISQRMRVP [M11Q]

>  <Measured parameter>
protein stability index

>  <Reported>
3.35

$$$$
>  <Seq text>
MAEISRIQYEKEYTEGISQRMRVP [M11K]

>  <Measured parameter>
protein stability index

>  <Reported>
3.27

$$$$
>  <Seq text>
MKEISRIQYEMEYTEGISQRMRVP [A2K]

>  <Measured parameter>
protein stability index

>  <Reported>
2.77

$$$$
>  <Seq text>
MAEISRIQYEMEYSEGISQRMRVP [T14S]

>  <Measured parameter>
protein stability index

>  <Reported>
2.71

$$$$
>  <Seq text>
MAEISRIQYEMEYTEGISQRMMVP [R22M]

>  <Measured parameter>
protein stability index

>  <Reported>
2.38

$$$$
>  <Seq text>
MAEISRIQYEMERTEGISQRMRVP [Y13R]

>  <Measured parameter>
protein stability index

>  <Reported>
2.71

$$$$
>  <Seq text>
MAEISRIQYEMEYTEGISQRMRVR [P24R]

>  <Measured parameter>
protein stability index

>  <Reported>
2.87

$$$$
>  <Seq text>
MAEISRHQYEMEYTEGISQRMRVP [I7H]

>  <Measured parameter>
protein stability index

>  <Reported>
3

$$$$
>  <Seq text>
MAEISRIQYEMEYTMGISQRMRVP [E15M]

>  <Measured parameter>
protein stability index

>  <Reported>
1.75

$$$$
>  <Seq text>
MAEISRIQYEMEYTEGISDRMRVP [Q19D]

>  <Measured parameter>
protein stability index

>  <Reported>
3.16

$$$$
>  <Seq text>
MAEISRIQYEMEYTEGISQRYRVP [M21Y]

>  <Measured parameter>
protein stability index

>  <Reported>
2.9

$$$$
>  <Seq text>
MAEISRIQYEMEYCEGISQRMRVP [T14C]

>  <Measured parameter>
protein stability index

>  <Reported>
2.24

$$$$

All values here come from the supplement of paper PMC10567573.
